Experiment: Nanoparticle diameter and polydispersity by dynamic light scattering (Malvern Zetasizer)
Assay type: physicochemical
Conditions: N/P = 8
So I've got a bunch of molecules here, and I need their Polydispersity of siRNA-lipid complexes values.
Write no unit; give the number alone.

QUERY: Return reported Polydispersity of siRNA-lipid complexes; argument: CCCCCCCC/C=C\CCCCCCCC(=O)NC(CS)C(=O)NC(Cc1cnc[nH]1)C(=O)NCCNC(=O)CCN(CCN)CCC(=O)NCCNC(=O)C(Cc1cnc[nH]1)NC(=O)C(CS)NC(=O)CCCCCCC/C=C\CCCCCCCC (stereo not shown) [EHCO]
RESULT: 0.165

QUERY: Then this molecule: CCCCCCCC/C=C\CCCCCCCC(=O)NC(CS)C(=O)NCCNC(=O)CCN(CCCNCCCCNCCCN)CCC(=O)NCCNC(=O)C(CS)NC(=O)CCCCCCC/C=C\CCCCCCCC (stereo not shown) [SCO]
RESULT: 0.19

QUERY: Then this molecule: CCCCC/C=C\C/C=C\CCCCCCCC(=O)NC(CS)C(=O)NCCNC(=O)CCN(CCCNCCCCNCCCN)CCC(=O)NCCNC(=O)C(CS)NC(=O)CCCCCCC/C=C\C/C=C\CCCCC (stereo not shown) [SCLn]
RESULT: 0.140

QUERY: Then this molecule: CCCCCCCC/C=C\CCCCCCCC(=O)N[C@@H](CS)C(=O)NCCNC(=O)CCN(CCN)CCC(=O)NCCNC(=O)[C@H](CS)NC(=O)CCCCCCC/C=C\CCCCCCCC [ECO]
RESULT: 0.157

QUERY: Then this molecule: CCCCC/C=C\C/C=C\CCCCCCCC(=O)NC(CS)C(=O)NC(Cc1cnc[nH]1)C(=O)NCCNC(=O)CCN(CCCNCCCCNCCCN)CCC(=O)NCCNC(=O)C(Cc1cnc[nH]1)NC(=O)C(CS)NC(=O)CCCCCCC/C=C\C/C=C\CCCCC (stereo not shown) [SHCLn]
RESULT: 0.174

QUERY: Then this molecule: CCCCC/C=C\C/C=C\CCCCCCCC(=O)NC(CS)C(=O)NC(Cc1cnc[nH]1)C(=O)NCCNC(=O)CCN(CCN)CCC(=O)NCCNC(=O)C(Cc1cnc[nH]1)NC(=O)C(CS)NC(=O)CCCCCCC/C=C\C/C=C\CCCCC (stereo not shown) [EHCLn]
RESULT: 0.167

QUERY: Then this molecule: CCCCCCCC/C=C\CCCCCCCC(=O)NC(CS)C(=O)NC(Cc1cnc[nH]1)C(=O)NCCNC(=O)CCN(CCCNCCCCNCCCN)CCC(=O)NCCNC(=O)C(Cc1cnc[nH]1)NC(=O)C(CS)NC(=O)CCCCCCC/C=C\CCCCCCCC (stereo not shown) [SHCO]
RESULT: 0.189
